Overview of recorded composite z-score for various molecules
- TARGET ENTITY: Streptavidin (Streptomyces avidinii)
- ASSAY EXPLANATION: compounds binding control protein streptavidin – biophysical, small-molecule microarray, 635/667 nm fluorescence, artefact control for SMM compound annotation, primary screen (AID 1147);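 further: signal reflects streptavidin binding to arrayed compounds as a control protein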
- CONDITION SUMMARY: higher = more signal
The reply should be a number, written without any unit.

// lookup composite z-score | system=Streptavidin (Streptomyces avidinii) | key= Cc1cc(C)c(C(O)C2C=CC3C(=O)NC(=O)C3N2Nc2ccccn2)c(C)c1 (stereo not drawn)
0.545

// lookup composite z-score | system=Streptavidin (Streptomyces avidinii) | key= CC(c1ccccc1)C(O)C1C=CC2C(=O)N(Cc3ccccc3)C(=O)C2N1n1cnnc1 (stereo not drawn)
0.705

// lookup composite z-score | system=Streptavidin (Streptomyces avidinii) | key= O=C1O[C@@H](c2ccccc2)[C@@H](c2ccccc2)N2[C@@H](c3ccc(O)cc3)[C@]3(C(=O)Nc4ccccc43)[C@@H](C(=O)N3CCCCCCC3)[C@H]12
2.93

// lookup composite z-score | system=Streptavidin (Streptomyces avidinii) | key= COc1ccccc1CN1C(=O)c2ccccc2[C@](Cc2ccccc2I)(C(=O)NC2CC2)[C@@H]1c1ccc(CO)cc1
0.662

// lookup composite z-score | system=Streptavidin (Streptomyces avidinii) | key= OCCCc1cc[n+](Cc2cccc(OC(F)(F)F)c2)cc1
0.274

// lookup composite z-score | system=Streptavidin (Streptomyces avidinii) | key= CO[C@H]1O[C@H](CO)[C@@H](OC(=O)Nc2ccccc2-c2ccccc2)[C@H](OC(=O)Nc2ccccc2-c2ccccc2)[C@H]1OC(=O)Nc1ccccc1-c1ccccc1
0.244

// lookup composite z-score | system=Streptavidin (Streptomyces avidinii) | key= CC(C)N1C(=O)c2ccccc2[C@](C)(C(=O)NC2CC2)[C@@H]1c1ccc(CO)cc1
-0.166

// lookup composite z-score | system=Streptavidin (Streptomyces avidinii) | key= C=CC[C@@]1(C(=O)OC)N=C(c2ccc(OCCCO)cc2)O[C@@H]1c1ccccc1CN=[N+]=[N-]
-0.233
